Molecular target: RORγt (Homo sapiens)
Construct: […]
Sequence (P51449 269-508 limits assumed): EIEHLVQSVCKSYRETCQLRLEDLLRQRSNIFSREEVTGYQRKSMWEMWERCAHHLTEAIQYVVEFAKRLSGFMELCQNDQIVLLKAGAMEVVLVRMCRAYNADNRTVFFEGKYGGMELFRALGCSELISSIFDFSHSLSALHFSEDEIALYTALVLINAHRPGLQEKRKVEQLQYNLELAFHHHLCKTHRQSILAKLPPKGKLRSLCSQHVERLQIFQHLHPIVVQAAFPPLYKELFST
Experiment: Fluorescence resonance energy transfer (FRET) test, inhibitory activity of RORγt
Type: biochemical
Settings: FRET, B-RORγt LBD / Biotin-SRC1; read-out: IC50
pIC50: −log10 of the molar value.
Test readout: pIC50

CS(=O)(=O)c1ccc([C@H](CC#N)NC(=O)c2ccc(N3C[C@@H](Oc4ccc(C(F)(F)F)cc4)C[C@H]3COC(F)F)cc2)cc1 ... 7.66
CCS(=O)(=O)c1ccc([C@H](CC#N)NC(=O)c2ccc(N3C[C@@H](Oc4ccc(C(F)(F)F)cc4)C[C@H]3COC(F)F)c(Cl)c2)cc1 ... 7.48
CCC(F)(F)OC[C@@H]1CC[C@H](c2ccc(C(F)(F)F)cc2)CN1c1ccc(C(=O)N[C@H](CC#N)c2ccc(S(=O)(=O)CC)cc2)cc1 ... 7.72
CCS(=O)(=O)c1ccc([C@H](CC#N)NC(=O)c2ccc(N3CC(Oc4ccc(OC)cc4)C[C@H]3COC(F)F)cc2)cc1 (stereo in doubt) ... 8.15
CCS(=O)(=O)c1ccc([C@H](CC#N)NC(=O)c2ccc(N3CC(Oc4ccc(C(F)(F)F)nc4)C[C@H]3COC(F)F)cc2)cc1 (stereo in doubt) ... 7.39
CCS(=O)(=O)c1ccc([C@H](CC#N)NC(=O)c2ccc(N3C[C@@H](Oc4ccc(Cl)cn4)C[C@H]3COC(F)F)cc2)cc1 ... 8.25
CCS(=O)(=O)c1ccc([C@H](COCCOC)NC(=O)c2ccc(N3C[C@@H](Oc4ccc(C(F)(F)F)cc4)C[C@H]3COC(F)F)cc2)cc1 ... 7.92
CCS(=O)(=O)c1ccc([C@H](COCC(=O)O)NC(=O)c2ccc(N3C[C@@H](Oc4ccc(C(F)(F)F)cc4)C[C@H]3COC(F)F)cc2)cc1 ... 8.05
CCS(=O)(=O)c1ccc([C@@H](CC#N)NC(=O)c2ccc(N3C[C@@H](Oc4ccc(OC(F)(F)F)cn4)C[C@H]3COC(F)F)cc2)cc1 ... 7.83

A. CCS(=O)(=O)c1ccc(C(CC#N)NC(=O)c2ccc(N3CC(c4ccc(C(F)(F)F)cc4)C[C@H]3COC(F)F)cc2)cc1 (stereo in doubt)
B. CCS(=O)(=O)c1ccc([C@H](CC#N)NC(=O)c2ccc(N3C[C@@H](Oc4ccc(C#N)cc4)C[C@H]3COC(F)F)cc2)cc1
C. CCS(=O)(=O)c1ccc([C@H](CC#N)NC(=O)c2ccc(N3C[C@@H](Oc4ccc(OC(F)F)cc4)C[C@H]3COC(F)F)cc2)cc1
Rank by pIC50 (largest to smallest). Returns: the labels listed in the requested order.
C, B, A

Entry source: patent US20230121086A1
